# Test system: BDF1 mice, s.c. Lewis lung carcinoma, T/C %
# METHOD: NCI In Vivo Anticancer Drug Screen. Data for tumor model Lewis Lung Carcinoma (subcutaneous) in B6D2F1 (BDF1) mice
# STUDY_CONDITIONS: endpoint: mean tumor weight; dose: 15.6 mg/kg/injection; schedule: Q01DX011 (ip); vehicle: saline; higher = larger tumour
Records with an inconclusive call do not appear.
ASSAY_METRIC: T/C

Record excerpt, results attached:
MOLECULE	OBSERVED_MEASUREMENT
CC(C)=CCC/C(C)=C/CO	71 % of control
COc1ccc(-c2oc3ccc(C)cc3c(=O)c2O)cc1	67 % of control
NC(=O)NC1NC(=O)NC1=O (centres undefined)	67 % of control

Field: next molecule
Problem: Tell me the measured T/C of `C=C[C@]1(C)C=C2CC[C@@H]3[C@](C)(CCC[C@@]3(C)C(=O)O)[C@H]2CC1` , please.
Result: 55 % of control
